test system: NCI-H1993 (Lung Adenocarcinoma); assay: Bliss excess, mean over the matrix (fraction); higher = more synergy
measured metric: Bliss excess
Could you keep your reply to the number by itself?

compound="Cc1c2c(nn1C)CSCc1cc(n(C)n1)CSc1cc(c3ccccc3c1)OCCCc1c(C(=O)O)n(C)c3c-2c(Cl)ccc13 [AZD5991] + C=CCn1c(=O)c2cnc(Nc3ccc(N4CCN(C)CC4)cc3)nc2n1-c1cccc(C(C)(C)O)n1 [AZD1775] (first compound max 1 µM, partner max 1 µM)" measured_metric="Bliss excess" measured_value=0.0026

Now look at this entry.
Value lookup for Bliss excess; key = Cc1cc2ncnn2cc1Nc1ncc2c(n1)n(C1CCOCC1)c(=O)n2C [AZD7648] + C[C@@H]1COCCN1C2=NC(=NC(=C2)C3(CC3)[S@](=N)(=O)C)C4=C5C=CNC5=NC=C4 [AZD6738] (first compound max 10 µM, 7x7, partner max 10 µM)
0.0469

====

This section presents compounds with their documented combination Emax values.
test system: NCI-H1838 (Lung Adenocarcinoma); experiment: combination Emax (second highest fraction inhibited in the dose matrix, 72 h); higher = more inhibition; extreme values may be limits of the assay
Lab note: record the figure alone, no unit after it.

compound="CN(C)CCCOc1ccc(-c2ccc3ncc4c(c3c2)n(C2CCOCC2)c(=O)n4C)cn1 [AZD0156] + C=CCn1c(=O)c2cnc(Nc3ccc(N4CCN(C)CC4)cc3)nc2n1-c1cccc(C(C)(C)O)n1 [AZD1775] (first compound max 1 µM, partner max 1 µM)" measured_metric="combination Emax" measured_value=0.465
compound="CN(C)CCCOc1ccc(-c2ccc3ncc4c(c3c2)n(C2CCOCC2)c(=O)n4C)cn1 [AZD0156] + C[C@@H]1COCCN1C2=NC(=NC(=C2)C3(CC3)[S@](=N)(=O)C)C4=C5C=CNC5=NC=C4 [AZD6738] (first compound max 1 µM, 7x7, partner max 10 µM)" measured_metric="combination Emax" measured_value=0.745

Which combination Emax value belongs to NC1(C(=O)N[C@@H](CCO)c2ccc(Cl)cc2)CCN(c2ncnc3[nH]ccc23)CC1 [Capivasertib] + Cn1cnc2c(F)c(Nc3ccc(Br)cc3Cl)c(C(=O)NOCCO)cc21 [Selumetinib] (first compound max 10 µM, 7x7, partner max 10 µM) ?
0.367

Suppose we examine the compound Cc1c2c(nn1C)CSCc1cc(n(C)n1)CSc1cc(c3ccccc3c1)OCCCc1c(C(=O)O)n(C)c3c-2c(Cl)ccc13 [AZD5991] + C=CCn1c(=O)c2cnc(Nc3ccc(N4CCN(C)CC4)cc3)nc2n1-c1cccc(C(C)(C)O)n1 [AZD1775] (first compound max 1 µM, partner max 1 µM) ; what combination Emax value has been reported?
0.835

====

test system: SW872 (Other Solid Carcinomas); experiment: Bliss excess, mean over the matrix (fraction); higher = more synergy
measured metric: Bliss excess
Enter the number alone.

Please look up its Bliss excess: Cc1cc2ncnn2cc1Nc1ncc2c(n1)n(C1CCOCC1)c(=O)n2C [AZD7648] + O=C(c1cc(Cc2n[nH]c(=O)c3ccccc23)ccc1F)N1CCN(C(=O)C2CC2)CC1 [Olaparib] (first compound max 10 µM, 7x7, partner max 10 µM)
-0.0126

Endpoint output: Bliss excess of CN(CCO)CC[C@H](CSc1ccccc1)Nc1ccc(S(=O)(=O)NC(=O)c2ccc(N3CCC([C@@H](O)c4ccccc4-c4ccc(Cl)cc4)CC3)cc2)cc1S(=O)(=O)C(F)(F)F [AZD4320] + C[C@@H]1COCCN1C2=NC(=NC(=C2)C3(CC3)[S@](=N)(=O)C)C4=C5C=CNC5=NC=C4 [AZD6738] (first compound max 1 µM, 7x7, partner max 10 µM) . Value?
-0.039

Field request: Bliss excess | item: Cc1nc(Nc2ncc(C(=O)Nc3c(C)cccc3Cl)s2)cc(N2CCN(CCO)CC2)n1 [Dasatinib] + CC(=O)Nc1cccc(-n2c(=O)n(C3CC3)c(=O)c3c(Nc4ccc(I)cc4F)n(C)c(=O)c(C)c32)c1 [Trametinib] (first compound max 2 µM, 7x7, partner max 1 µM)
0.101

====

test system: ML-2 (Acute Myeloid Leukemia); assay: Bliss excess, mean over the matrix (fraction); higher = more synergy
measured metric: Bliss excess
Kindly provide the number alone.

compound="C[C@@H](Nc1cc(F)cc(F)c1)c1cc(C(=O)N(C)C)cc2c(=O)cc(N3CCOCC3)oc12 [AZD8186] + CC(=O)c1c(C)c2cnc(Nc3ccc(N4CCNCC4)cn3)nc2n(C2CCCC2)c1=O [Palbociclib] (first compound max 10 µM, 7x7, partner max 10 µM)" measured_metric="Bliss excess" measured_value=0.103

Bliss excess lookup needed for COc1cccc(OCCCN)c1-c1cc(Nc2cnc(C#N)cn2)n[nH]1 [Prexasertib] + O=C(c1cc(Cc2n[nH]c(=O)c3ccccc23)ccc1F)N1CCN(C(=O)C2CC2)CC1 [Olaparib] (first compound max 1 µM, 7x7, partner max 10 µM) , thanks.
-0.0006

Return reported Bliss excess; argument: Cc1c2c(nn1C)CSCc1cc(n(C)n1)CSc1cc(c3ccccc3c1)OCCCc1c(C(=O)O)n(C)c3c-2c(Cl)ccc13 [AZD5991] + CN(C)CCCOc1ccc(-c2ccc3ncc4c(c3c2)n(C2CCOCC2)c(=O)n4C)cn1 [AZD0156] (first compound max 1 µM, 7x7, partner max 1 µM)
-0.0149

# Bliss excess lookup, item C=CCn1c(=O)c2cnc(Nc3ccc(N4CCN(C)CC4)cc3)nc2n1-c1cccc(C(C)(C)O)n1 [AZD1775] + C1CN(CCC1(C(=O)N[C@@H](CCO)C2=CC=C(C=C2)Cl)N)C3=NC=NC4=C3C=CN4 [Capivasertib] (first compound max 3 µM, partner max 3 µM)
-0.0148

====

test system: EJM (Plasma Cell Myeloma); test: combination Emax (second highest fraction inhibited in the dose matrix, 72 h); higher = more inhibition; extreme values may be limits of the assay
measured metric: combination Emax
Give a plain numeric answer without units written out.

compound="COc1cccc2c1C(=O)c1c(O)c3c(c(O)c1C2=O)C[C@@](O)(C(=O)CO)C[C@@H]3O[C@H]1C[C@H](N)[C@H](O)[C@H](C)O1 [Doxorubicin] + Cc1cc2ncnn2cc1Nc1ncc2c(n1)n(C1CCOCC1)c(=O)n2C [AZD7648] (first compound max 1 µM, 7x7, partner max 10 µM)" measured_value=0.903
compound="CCN(CCO)CCCOc1ccc2c(Nc3cc(CC(=O)Nc4cccc(F)c4)[nH]n3)ncnc2c1 [AZD2811] + O=C(c1cc(Cc2n[nH]c(=O)c3ccccc23)ccc1F)N1CCN(C(=O)C2CC2)CC1 [Olaparib] (first compound max 1 µM, 7x7, partner max 10 µM)" measured_value=0.167
compound="CN(CCO)CC[C@H](CSc1ccccc1)Nc1ccc(S(=O)(=O)NC(=O)c2ccc(N3CCC([C@@H](O)c4ccccc4-c4ccc(Cl)cc4)CC3)cc2)cc1S(=O)(=O)C(F)(F)F [AZD4320] + CCN(CCO)CCCOc1ccc2c(Nc3cc(CC(=O)Nc4cccc(F)c4)[nH]n3)ncnc2c1 [AZD2811] (first compound max 1 µM, 7x7, partner max 1 µM)" measured_value=0.406
compound="NC1(C(=O)N[C@@H](CCO)c2ccc(Cl)cc2)CCN(c2ncnc3[nH]ccc23)CC1 [Capivasertib] + CC(=O)c1c(C)c2cnc(Nc3ccc(N4CCNCC4)cn3)nc2n(C2CCCC2)c1=O [Palbociclib] (first compound max 10 µM, 7x7, partner max 10 µM)" measured_value=0.391
compound="CC1(C)CCC(CN2CCN(c3ccc(C(=O)NS(=O)(=O)c4ccc(NCC5CCOCC5)c([N+](=O)[O-])c4)c(Oc4cnc5[nH]ccc5c4)c3)CC2)=C(c2ccc(Cl)cc2)C1 [Venetoclax] + Cc1cc2ncnn2cc1Nc1ncc2c(n1)n(C1CCOCC1)c(=O)n2C [AZD7648] (first compound max 1 µM, 7x7, partner max 10 µM)" measured_value=0.238

// combination Emax lookup, key: CCN(CCO)CCCOc1ccc2c(Nc3cc(CC(=O)Nc4cccc(F)c4)[nH]n3)ncnc2c1 [AZD2811] + C[C@@H]1COCCN1C2=NC(=NC(=C2)C3(CC3)[S@](=N)(=O)C)C4=C5C=CNC5=NC=C4 [AZD6738] (first compound max 1 µM, 7x7, partner max 10 µM)
0.858

State the recorded combination Emax for this entry: Cc1cc2ncnn2cc1Nc1ncc2c(n1)n(C1CCOCC1)c(=O)n2C [AZD7648] + CN(C)CCCOc1ccc(-c2ccc3ncc4c(c3c2)n(C2CCOCC2)c(=O)n4C)cn1 [AZD0156] (first compound max 10 µM, 7x7, partner max 1 µM)
0.225

====

system: MOG-G-UVW (Low Grade Glioma); assay: combination Emax (second highest fraction inhibited in the dose matrix, 72 h); higher = more inhibition; extreme values may be limits of the assay
Recorded combination Emax determines the label; the label ranges are one = under 0.7, two = from 0.7 up to 0.8, three = 0.8 and over

For orientation, consider the following solved cases.
compound="COc1nnc2ccc(N3CCC(c4ccc(OCCN5CCN(C)C(=O)[C@H]5C)cc4)CC3)nn12 [AZD5153] + Cn1cnc2c(F)c(Nc3ccc(Br)cc3Cl)c(C(=O)NOCCO)cc21 [Selumetinib] (first compound max 1 µM, 7x7, partner max 10 µM)" discrete_label=one
compound="Cc1c2c(nn1C)CSCc1cc(n(C)n1)CSc1cc(c3ccccc3c1)OCCCc1c(C(=O)O)n(C)c3c-2c(Cl)ccc13 [AZD5991] + CC(=O)O[C@H]1C(=O)[C@@]2(C)[C@H]([C@H](OC(=O)c3ccccc3)[C@]3(O)C[C@H](OC(=O)[C@H](O)[C@@H](NC(=O)c4ccccc4)c4ccccc4)C(C)=C1C3(C)C)[C@]1(OC(C)=O)CO[C@@H]1C[C@@H]2O [Paclitaxel] (first compound max 1 µM, 7x7, partner max 3 µM)" discrete_label=three

Given CC(=O)Nc1cccc(-n2c(=O)n(C3CC3)c(=O)c3c(Nc4ccc(I)cc4F)n(C)c(=O)c(C)c32)c1 [Trametinib] + Cc1nc(-c2cn3c(n2)-c2ccc(-c4cnn(C(C)(C)C(N)=O)c4)cc2OCC3)n(C(C)C)n1 [Taselisib] (first compound max 1 µM, 7x7, partner max 10 µM) , name the class its combination Emax places it in.
three

Dear colleague, I would appreciate it if you could identify the bin for COc1cc2ncnc(Nc3ccc(F)c(Cl)c3)c2cc1OCCCN1CCOCC1 [Gefitinib] + CC(C)n1c(=O)n(C)c2cnc3cc(F)c(-c4ccc(OCCCN5CCCCC5)nc4)cc3c21 [AZD1390] (first compound max 10 µM, 7x7, partner max 0.3 µM) and reply at your convenience.
one

Into which category would you place COc1nnc2ccc(N3CCC(c4ccc(OCCN5CCN(C)C(=O)[C@H]5C)cc4)CC3)nn12 [AZD5153] + C[C@@H]1COCCN1C2=NC(=NC(=C2)C3(CC3)[S@](=N)(=O)C)C4=C5C=CNC5=NC=C4 [AZD6738] (first compound max 1 µM, 7x7, partner max 10 µM) ?
two

Band assignment needed for CN(C)CCCOc1ccc(-c2ccc3ncc4c(c3c2)n(C2CCOCC2)c(=O)n4C)cn1 [AZD0156] + C=CCn1c(=O)c2cnc(Nc3ccc(N4CCN(C)CC4)cc3)nc2n1-c1cccc(C(C)(C)O)n1 [AZD1775] (first compound max 1 µM, partner max 1 µM) please.
two

// bin(item) where item = CC1(C)CCC(CN2CCN(c3ccc(C(=O)NS(=O)(=O)c4ccc(NCC5CCOCC5)c([N+](=O)[O-])c4)c(Oc4cnc5[nH]ccc5c4)c3)CC2)=C(c2ccc(Cl)cc2)C1 [Venetoclax] + C1CN(CCC1(C(=O)N[C@@H](CCO)C2=CC=C(C=C2)Cl)N)C3=NC=NC4=C3C=CN4 [Capivasertib] (first compound max 1 µM, 7x7, partner max 3 µM)
one

Lab note: which band did CC1(C)CCC(CN2CCN(c3ccc(C(=O)NS(=O)(=O)c4ccc(NCC5CCOCC5)c([N+](=O)[O-])c4)c(Oc4cnc5[nH]ccc5c4)c3)CC2)=C(c2ccc(Cl)cc2)C1 [Venetoclax] + COc1cc(Nc2ncc3c(n2)-c2ccc(Cl)cc2C(c2c(F)cccc2OC)=NC3)ccc1C(=O)O [Alisertib] (first compound max 1 µM, 7x7, partner max 10 µM) land in?
two

Looking at CC1(C)CCC(CN2CCN(c3ccc(C(=O)NS(=O)(=O)c4ccc(NCC5CCOCC5)c([N+](=O)[O-])c4)c(Oc4cnc5[nH]ccc5c4)c3)CC2)=C(c2ccc(Cl)cc2)C1 [Venetoclax] + Cn1cnc2c(F)c(Nc3ccc(Br)cc3Cl)c(C(=O)NOCCO)cc21 [Selumetinib] (first compound max 1 µM, 7x7, partner max 3 µM) , which class would you pick?
one
